Here the recorded IC50 is given for each entry.
target: FAK (Homo sapiens); construct: endogenous in cells; host or cells: U87MG glioblastoma cells (ATCC HTB-14); assay: Cell-based capture ELISA for inhibition of FAK autophosphorylation [pY397] in U87MG cells; conditions: no plasma present, mean IC50, read-out: FAK Activity Mechanistic (U87MG) NP

Sample answers from the record:
CCOP1(=O)Cc2ccc(c(OC)c2)Nc2ncc(C(F)(F)F)c(n2)Nc2ccc(nc2C(=O)NC)-c2cn(nc2Cl)CCCO1 (single isomer, unassigned) [Example 49A] : < 400 nM
CCP1(=O)Cc2ccc(c(OC)c2)Nc2ncc(C(F)(F)F)c(n2)Nc2ccc(nc2C(=O)NC)-c2cnn(c2)CCCO1 (racemic) [Example 67] : < 400 nM

# evaluate next
## Task Recall and state the measured IC50 for CCOP1(=O)Cc2ccc(c(OC)c2)Nc2ncc(C(F)(F)F)c(n2)Nc2ccc(nc2C(=O)NC)-c2cnn(c2)CC[C@@H](C)O1 (mixture of isomers) .
## Result < 400 nM

====

target: FAK (Homo sapiens, UniProt Q05397); construct: endogenous in cells; host or cells: U87MG glioblastoma cells (ATCC HTB-14); test: Cell-based capture ELISA for inhibition of FAK autophosphorylation [pY397] in U87MG cells; conditions: 50% (v/v) human plasma, mean IC50, read-out: FAK Activity Mechanistic (U87MG) HP
Sequence (Q05397 whole entry): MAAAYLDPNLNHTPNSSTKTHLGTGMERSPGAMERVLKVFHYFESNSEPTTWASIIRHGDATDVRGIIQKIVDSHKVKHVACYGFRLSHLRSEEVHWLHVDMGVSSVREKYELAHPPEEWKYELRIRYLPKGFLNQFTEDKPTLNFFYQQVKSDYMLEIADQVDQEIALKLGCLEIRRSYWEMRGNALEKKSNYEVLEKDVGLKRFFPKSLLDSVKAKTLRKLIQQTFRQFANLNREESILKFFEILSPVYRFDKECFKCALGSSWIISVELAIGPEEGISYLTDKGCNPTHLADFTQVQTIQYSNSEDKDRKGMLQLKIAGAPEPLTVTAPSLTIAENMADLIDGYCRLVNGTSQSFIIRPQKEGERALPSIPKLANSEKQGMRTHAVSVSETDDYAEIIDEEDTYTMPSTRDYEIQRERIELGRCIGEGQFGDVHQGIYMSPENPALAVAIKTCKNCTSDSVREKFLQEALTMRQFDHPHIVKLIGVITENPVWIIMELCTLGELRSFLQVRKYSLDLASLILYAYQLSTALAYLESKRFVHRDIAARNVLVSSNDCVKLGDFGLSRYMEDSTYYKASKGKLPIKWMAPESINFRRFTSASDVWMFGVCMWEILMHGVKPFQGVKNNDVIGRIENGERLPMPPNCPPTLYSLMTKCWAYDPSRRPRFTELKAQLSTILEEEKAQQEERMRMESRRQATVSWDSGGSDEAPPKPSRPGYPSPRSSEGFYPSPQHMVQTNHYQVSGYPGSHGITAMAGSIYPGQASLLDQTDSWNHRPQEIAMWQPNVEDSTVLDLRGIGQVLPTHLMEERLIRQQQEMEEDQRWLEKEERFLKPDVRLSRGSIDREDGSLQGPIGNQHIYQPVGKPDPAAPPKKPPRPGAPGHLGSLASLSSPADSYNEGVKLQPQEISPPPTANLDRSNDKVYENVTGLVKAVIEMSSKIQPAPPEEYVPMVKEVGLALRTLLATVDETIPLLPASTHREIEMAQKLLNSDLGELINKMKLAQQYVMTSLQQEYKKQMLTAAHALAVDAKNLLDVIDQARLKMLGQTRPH
Listing of recorded IC50 by entry.

Worked examples follow.
CCOP1(=O)Cc2ccc(cc2)Nc2ncc(C(F)(F)F)c(n2)Nc2ccc(nc2C(=O)NC)-c2cnn(c2)CCCCO1 (stereo not drawn) : < 400 nM
CCCP1(=O)Cc2ccc(c(OC)c2)Nc2ncc(C(F)(F)F)c(n2)Nc2ccc(cc2C(=O)NC)-c2cnn(c2)CCCO1 (racemic) : < 400 nM
CNC(=O)c1nc2ccc1Nc1nc(ncc1C(F)(F)F)Nc1ccc(cc1OC)CP(=O)(OC(C)C)OCCCn1cc-2cn1 (single isomer, unassigned) [Example 72A] : 400 to 4000 nM
CCOP1(=O)Cc2ccc(c(OC)c2)Nc2ncc(C(F)(F)F)c(n2)Nc2ccc(nc2C(=O)NC)-c2cnn(c2)CC(C)CO1 (mixture of isomers) [Example 19] : < 400 nM

## Task For FAK (Homo sapiens, UniProt Q05397), give IC50 of the listed compound: CCOP1(=O)Cc2cc(OC)c(cc2Cl)Nc2ncc(C(F)(F)F)c(n2)Nc2ccc(nc2C(=O)NC)-c2cnn(c2)CC2(COC2)CO1 (single isomer, unassigned) [Example 57A]
## Result > 4000 nM

## Task Report value: IC50, system: FAK (Homo sapiens, UniProt Q05397), compound: CCOP1(=O)Cc2ccc(c(OC)c2)Nc2ncc(C(F)(F)F)c(n2)Nc2ccc(nc2C(=O)NC)-c2cnn(c2)CCCO1 (racemic) [Example 6]
## Result < 400 nM

====

target: FAK (Homo sapiens); construct: endogenous in cells; host or cells: U87MG glioblastoma cells (ATCC HTB-14); assay: Cell-based capture ELISA for inhibition of FAK autophosphorylation [pY397] in U87MG cells; conditions: no plasma present, mean IC50, read-out: FAK Activity Mechanistic (U87MG) NP
In this section, each of the molecules is paired with its reported IC50.

Examples with their reported IC50 follow.
CCOP1(=O)Cc2ccc(c(OC)c2)Nc2ncc(C(F)(F)F)c(n2)Nc2ccc(cc2C(=O)NC)-c2cnn(c2)CCCCO1 (racemic) : < 400 nM
CNC(=O)c1nc2ccc1Nc1nc(ncc1C(F)(F)F)Nc1ccc(cc1OC)CP(=O)(OC(C)C)OCCCn1cc-2cn1 (single isomer, unassigned) [Example 72A] : < 400 nM
CCNC(=O)c1cc2ccc1Nc1nc(ncc1C(F)(F)F)Nc1ccc(cc1)CP(=O)(OCC)OCCCn1cc-2cn1 (racemic) : 400 to 4000 nM
CCOP1(=O)Cc2ccc(cc2)Nc2ncc(C(F)(F)F)c(n2)Nc2ccc(cc2C(=O)N(C)C)-c2cnn(c2)CCCO1 (racemic) : < 400 nM
CCOP1(=O)Cc2ccc(c(OC)c2)Nc2ncc(C(F)(F)F)c(n2)Nc2ccc(c(Cl)c2C(=O)NC)-c2cnn(c2)CCCO1 (racemic) : 400 to 4000 nM

## Task State its IC50: CCCP1(=O)Cc2ccc(c(OC)c2)Nc2ncc(C(F)(F)F)c(n2)Nc2ccc(nc2C(=O)NC)-c2cnn(c2)CCCO1 (racemic) [Example 37]
## Result < 400 nM

## Task // fetch IC50 given entry CCP1(=O)Cc2ccc(c(OC)c2)Nc2ncc(C(F)(F)F)c(n2)Nc2ccc(nc2C(=O)NC)-c2cnn(c2)CC2(CC2)CO1 (racemic)
## Result < 400 nM

## Task Tell me its IC50 given CCOP1(=O)Cc2ccc(c(OC)c2)Nc2ncc(C(F)(F)F)c(n2)Nc2ccc(nc2C(=O)NC)-c2c(C)nn(c2C)CCCO1 (racemic) as the entry.
## Result < 400 nM

## Task Quickly give me recorded IC50 for CCOP1(=O)Cc2ccc(c(OC)c2)Nc2ncc(C(F)(F)F)c(n2)Nc2ccc(nc2C(=O)NC)-c2cnn(c2)CCCO1 (single isomer, unassigned) [Example 6B]
## Result < 400 nM

## Task Give me measured IC50, please, for this molecule: CCOP1(=O)Cc2ccc(c(OC)c2)Nc2ncc(C(F)(F)F)c(n2)Nc2ccc(nc2C(=O)NC)-c2cnn(c2)CC2(COC2)CO1 (single isomer, unassigned) [Example 44A]
## Result < 400 nM

## Task Report measured IC50; entry is CCOP1(=O)Cc2ccc(c(OC)c2)Nc2ncc(C(F)(F)F)c(n2)Nc2ccc(c(C)c2C(=O)NC)-c2cnn(c2)CCCO1 (racemic)
## Result 400 to 4000 nM

## Task Supply reported IC50 belonging to this molecule: CCNC(=O)c1nc2ccc1Nc1nc(ncc1C(F)(F)F)Nc1ccc(cc1OC)CP(=O)(OCC)OCC1(COC1)Cn1cc-2cn1 (single isomer, unassigned) [Example 45A]
## Result < 400 nM

====

Recorded IC50, one value per entry.
target: FAK (Homo sapiens); construct: endogenous in cells; host or cells: U87MG glioblastoma cells (ATCC HTB-14); assay: Cell-based capture ELISA for inhibition of FAK autophosphorylation [pY397] in U87MG cells; details: 50% (v/v) human plasma, mean IC50, read-out: FAK Activity Mechanistic (U87MG) HP

Please review the entries below; each comes with its answer.
CCOP1(=O)Cc2ccc(c(OC)c2)Nc2ncc(C(F)(F)F)c(n2)Nc2ccc(nc2C(=O)NC)-c2c(C)nn(c2C)CCCO1 (racemic) : 400 to 4000 nM
CCOP1(=O)Cc2ccc(c(OC)c2)Nc2cc(c(C(F)(F)F)cn2)Nc2ccc(nc2C(=O)NC)-c2cnn(c2)CCCO1 (racemic) : < 400 nM
CCOP1(=O)Cc2ccc(c(OC)c2Cl)Nc2ncc(C(F)(F)F)c(n2)Nc2ccc(nc2C(=O)NC)-c2cnn(c2)CCCO1 (single isomer, unassigned) [Example 54A] : > 4000 nM
CCOP1(=O)Cc2ccc(c(OC)c2)Nc2ncc(C(F)(F)F)c(n2)Nc2ccc(nc2C(=O)NC)-c2cnn(c2C)CCCO1 (single isomer, unassigned) [Example 35A] : 400 to 4000 nM
CCOP1(=O)Cc2ccc(cc2)Nc2ncc(C(F)(F)F)c(n2)Nc2ccc(nc2C(=O)NC)-c2cnn(c2)CC(C)CO1 (mixture of isomers) : < 400 nM

## Task # return recorded IC50 for input CCOP1(=O)Cc2ccc(c(OC)c2)Nc2ncc(C(F)(F)F)c(n2)Nc2ccc(nc2C(=O)NC)-c2cnn(c2)CC(C)(C)CO1 (racemic)
## Result < 400 nM

====

biological target: FAK (Homo sapiens, UniProt Q05397); construct: endogenous in cells; host or cells: U87MG glioblastoma cells (ATCC HTB-14); test: Cell-based capture ELISA for inhibition of FAK autophosphorylation [pY397] in U87MG cells; conditions: 50% (v/v) human plasma, mean IC50, read-out: FAK Activity Mechanistic (U87MG) HP
readout name: IC50

Some compounds with recorded IC50:
CCOP1(=O)Cc2ccc(c(OC)c2)Nc2ncc(C(F)(F)F)c(n2)Nc2ccc(nc2C(=O)NC)-c2cn(nc2OC)CCCO1 (single isomer, unassigned) [Example 48A] : > 4000 nM
CCOP1(=O)Cc2ccc(c(OC)c2)Nc2ncc(C(F)(F)F)c(n2)Nc2ccc(nc2C(=O)NC)-c2cn(nc2C)CC2(COC2)CO1 (single isomer, unassigned) [Example 60A] : < 400 nM
CCCP1(=O)Cc2ccc(c(OC)c2)Nc2ncc(C(F)(F)F)c(n2)Nc2ccc(nc2C(=O)NC)-c2cnn(c2)CCCO1 (racemic) [Example 37] : < 400 nM
CCOP1(=O)Cc2ccc(c(F)c2)Nc2ncc(C(F)(F)F)c(n2)Nc2ccc(nc2C(=O)NC)-c2cnn(c2)CCCCO1 (racemic) : < 400 nM
CCNC(=O)c1nc2ccc1Nc1nc(ncc1C(F)(F)F)Nc1ccc(cc1OC)CP(=O)(OCC)OCC1(COC1)Cn1cc-2cn1 (single isomer, unassigned) [Example 45A] : 400 to 4000 nM

In the following, a different compound is considered.
## Task Consider the compound CCOP1(=O)Cc2ccc(c(OC)c2)Nc2ncc(C(F)(F)F)c(n2)Nc2ccc(nc2C(=O)NC)-c2cnn(c2)CC(F)(F)CO1 (single isomer, unassigned) [Example 59A] and give its recorded IC50.
## Result 400 to 4000 nM
